FACS Geometric mean With glutathione 37° C. listing for selected molecules.
molecular target: T1, EGFRvIII receptor in NR6 M cells (Homo sapiens, UniProt P00533, DELINS30-297G); assay: Internalization of EGFRvIII receptor by recombinant mAbs (FACS); format: cell-based; details: 0.25 μg/ml antibody, 1 hr
T1 construct: NR6 M cells stably expressing full length EGFRvIII; expressed in transfected cells; host or cells: NR6 cells (NR6 M)
Measure: FACS Geometric mean With glutathione 37° C.

# Molecule, Quantitative result
data = [
    ("139: XenoMax derived anti-EGFRvIII antibody, SEQ ID NO: 10/25 (antibody, listed as Homo sapiens, V domains shown) VH: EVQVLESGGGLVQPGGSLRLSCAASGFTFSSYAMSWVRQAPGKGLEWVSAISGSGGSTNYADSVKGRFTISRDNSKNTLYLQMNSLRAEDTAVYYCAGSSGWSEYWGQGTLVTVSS VL: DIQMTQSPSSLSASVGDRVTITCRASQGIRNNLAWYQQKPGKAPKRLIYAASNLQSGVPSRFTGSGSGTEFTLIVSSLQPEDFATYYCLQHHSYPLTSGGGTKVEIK", 19.23),
    ("095: XenoMax derived anti-EGFRvIII antibody, SEQ ID NO: 7/23 (antibody, listed as Homo sapiens, V domains shown) VH: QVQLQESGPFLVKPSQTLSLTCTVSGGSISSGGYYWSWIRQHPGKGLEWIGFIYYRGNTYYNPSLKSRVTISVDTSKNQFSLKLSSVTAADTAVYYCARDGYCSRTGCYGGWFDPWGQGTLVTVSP VL: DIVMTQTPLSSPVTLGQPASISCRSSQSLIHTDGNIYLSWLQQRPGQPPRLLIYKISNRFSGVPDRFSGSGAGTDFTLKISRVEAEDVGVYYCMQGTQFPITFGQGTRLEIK", 17.75),
]
